Test system: 616215-338-R-J1-PDC complex spheroid viability
Assay procedure: Anticancer human tumor 616215-338-R-J1-PDC patient-derived colon adenocarcinoma cell line growth inhibition [POLQ]
Condition info: second compound 0.316 µM; first compound 3.16 µM; stronger effect = lower value
Procedure: Multicellular complex tumor spheroid response to Polymerase (POL) inhibitors (novobiocin, ART-558, RP6685) in combination with a variety of drugs and investigational agents in selected tumor cell lines The POL inhibitors (novobiocin, ART-558, and RP6685) were evaluated both individually and in combination with standard of care and investigational anticancer small molecules within a complex spheroid model of solid tumors. . […]
Could you mark each record Y if its viability, T/C falls strictly under 60%, and N if it equals or exceeds it?

• C=CC(=O)N1CCN(c2nc(=O)n(-c3c(C)ccnc3C(C)C)c3nc(-c4c(O)cccc4F)c(F)cc23)C(C)C1 (stereo not given) + Cc1cccc(N(C)C(=O)C2C(O)CCN2c2nc(C)cc(C(F)(F)F)c2C#N)c1 = N
• CC1COCCN1c1cc(C2(O)CC3CCC(C2)O3)c2cnn(-c3ccn[nH]3)c2n1 (stereo not given) + Nc1ccc(C#CCN(C(=O)Cc2ncc(C(F)(F)F)cc2C(F)(F)F)c2ccc(F)cc2)nn1 = Y
• O=C(Nc1ccc(O)c(NS(=O)(=O)c2ccc(F)cc2)c1)c1ccc(-c2ccccc2)cc1 + Cc1cccc(N(C)C(=O)C2C(O)CCN2c2nc(C)cc(C(F)(F)F)c2C#N)c1 = N
• CC(C)n1c(=O)n(C)c2cnc3cc(F)c(-c4ccc(OCCCN5CCCCC5)nc4)cc3c21 + COC1C(OC(N)=O)C(O)C(Oc2ccc3c(O)c(NC(=O)c4ccc(O)c(CC=C(C)C)c4)c(=O)oc3c2C)OC1(C)C = N
• COc1ccc([C@@H](O)c2cc(-c3ncnc4cc(N5CCOCC5)ccc34)c(F)cc2Cl)nn1 + Nc1ccc(C#CCN(C(=O)Cc2ncc(C(F)(F)F)cc2C(F)(F)F)c2ccc(F)cc2)nn1 = N
• Nc1ccn(C2OC(CO)C(O)C2(F)F)c(=O)n1 (stereo not given) + Nc1ccc(C#CCN(C(=O)Cc2ncc(C(F)(F)F)cc2C(F)(F)F)c2ccc(F)cc2)nn1 = Y
• CC1COCCN1c1cc(C2(S(C)(=N)=O)CC2)nc(-c2ccnc3[nH]ccc23)n1 (stereo not given) + Nc1ccc(C#CCN(C(=O)Cc2ncc(C(F)(F)F)cc2C(F)(F)F)c2ccc(F)cc2)nn1 = N
• COc1cc(C2c3cc4c(cc3C(OC3OC5COC(C)OC5C(O)C3O)C3COC(=O)C23)OCO4)cc(OC)c1O (stereo not given) + COC1C(OC(N)=O)C(O)C(Oc2ccc3c(O)c(NC(=O)c4ccc(O)c(CC=C(C)C)c4)c(=O)oc3c2C)OC1(C)C = N

----------
Listed next: entries and their corresponding pIC50.
Test system: 616215-338-R-J1-PDC complex spheroid viability
Assay procedure: Anticancer human tumor 616215-338-R-J1-PDC cell line growth inhibition [POLQ];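 also: spheroids exposed to compounds for one week before readout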
Condition info: curve of first compound; second compound 0.316 µM
pIC50: −log10 of the molar value.
Observed property: pIC50

- CC1COCCN1c1cc(-c2ccnn2C)c2ccnc(-c3ccn[nH]3)c2n1 (stereo not drawn) + Nc1ccc(C#CCN(C(=O)Cc2ncc(C(F)(F)F)cc2C(F)(F)F)c2ccc(F)cc2)nn1: 6.72
- COc1cccc(OCCCN)c1-c1cc(Nc2cnc(C#N)cn2)n[nH]1 + Nc1ccc(C#CCN(C(=O)Cc2ncc(C(F)(F)F)cc2C(F)(F)F)c2ccc(F)cc2)nn1: 7.12
- CCc1cc2c(N3CCc4c(cc(Cn5ccnc5)cc4-c4cn(C)nc4C(F)(F)F)C3=O)cc(C)nc2c(OC)n1 + COC1C(OC(N)=O)C(O)C(Oc2ccc3c(O)c(NC(=O)c4ccc(O)c(CC=C(C)C)c4)c(=O)oc3c2C)OC1(C)C: 5.20
- CCc1cc2c(N3CCc4c(cc(Cn5ccnc5)cc4-c4cn(C)nc4C(F)(F)F)C3=O)cc(C)nc2c(OC)n1 + Cc1cccc(N(C)C(=O)C2C(O)CCN2c2nc(C)cc(C(F)(F)F)c2C#N)c1: 5.37
